# Test system: zebrafish
# experimental.protocol: Developmental toxicity (DevTox) assay
# Format: in vivo, Danio rerio
# condition.summary: Study 3; 1.7–100.0 μM daily 0–5 dpf, scored 6 dpf; 0.4% DMSO; Hill fit
Below, each of the compounds is paired with its reported pEC50 value.
Formally, pEC50 is defined as -log10 of the concentration c, with c in mol/L.

# compound, pEC50
measured = [
    ("O=S(=O)(O)C(F)(F)C(F)(F)C(F)(F)C(F)(F)C(F)(F)C(F)(F)C(F)(F)C(F)(F)F [PFOS, Perfluorooctanesulfonic acid]", 4.55),
]

So what pEC50 did O=S(=O)(O)C(F)(F)C(F)(F)C(F)(F)C(F)(F)C(F)(F)F [PFPeS, Perfluoropentanesulfonic acid] get with zebrafish? 4.31

* * *

# Tested on: zebrafish
# experimental.protocol: Developmental neurotoxicity (DNT) assay, light/dark locomotor behavior test
# Type: in vivo, Danio rerio
# condition.summary: Table 5 summary; this study (some rows also list literature)
measurement.name: DNT assay phenotype

Guide cases for DNT assay phenotype, answers given:
# compound, study.system, DNT assay phenotype
records = [
    ("O=S(=O)(O)C(F)(F)C(F)(F)C(F)(F)C(F)(F)C(F)(F)F [PFPeS, Perfluoropentanesulfonic acid]", "zebrafish", "Hyperactivity^a"),
    ("O=S(=O)(O)C(F)(F)C(F)(F)OC(F)(C(F)(F)F)C(F)(F)OC(F)=C(F)F (stereo not shown) [PFESA1]", "zebrafish", "Negative^a"),
    ("O=C(O)C(F)(F)C(F)(F)C(F)(F)C(F)(F)C(F)(F)F [PFHxA, Perfluorohexanoic acid]", "zebrafish", "Hyperactivity^a"),
    ("O=S(=O)(O)C(F)(F)C(F)(F)C(F)(F)C(F)(F)C(F)(F)C(F)(F)C(F)(F)F [PFHpS, Perfluoroheptanesulfonic acid]", "zebrafish", "Hyperactivity^a"),
    ("O=S(=O)(O)C(F)(F)C(F)(F)C(F)(F)C(F)(F)C(F)(F)C(F)(F)F [PFHxS, Perfluorohexanesulfonic acid]", "zebrafish", "Hyperactivity^a"),
]

Could you tell me which DNT assay phenotype is on file for O=C(O)C(F)(F)C(F)OC(F)(F)C(F)(F)C(F)(F)OC(F)(F)F (stereo not shown) [ADONA, 4,8-Dioxa-3H-perfluorononanoate] ? Negative^a

Find the recorded DNT assay phenotype belonging to O=C(O)C(F)(OC(F)(F)C(F)(F)C(F)(F)F)C(F)(F)F (stereo not shown) [GenX Free Acid, Perfluoro-2-propoxypropanoic acid] and report it. Negative^a

What DNT assay phenotype value was documented for this compound, O=S(=O)(O)C(F)(F)C(F)(F)C(F)(F)C(F)(F)F [PFBS, Perfluorobutanesulfonic acid] ? Negative^a

* * *

# experimental.protocol: Tissue analysis (internal tissue dose of parent PFAS, bioconcentration factor)
# Format: in vivo, Danio rerio
# condition.summary: nominal 80.0 μM; 6-d zebrafish assay; 0.4% DMSO
// values below are reported BCFdry
Kindly provide the numeric value in L/kg only, without the unit symbol.

Some entries whose results are on file:
# molecule, unit.abbrev, readout.number
rows = [
    ("O=C(O)C(F)(F)C(F)(F)C(F)(F)C(F)(F)C(F)(F)F [PFHxA, Perfluorohexanoic acid]", "L/kg", 0.24),
    ("O=C(O)C(F)(F)C(F)(F)C(F)(F)C(F)(F)C(F)(F)C(F)(F)C(F)(F)F [PFOA, Perfluoro-n-octanoic acid]", "L/kg", 5.17),
    ("O=S(=O)(O)C(F)(F)C(F)(F)OC(F)(C(F)(F)F)C(F)(F)OC(F)=C(F)F (stereo not shown) [PFESA1]", "L/kg", 1.44),
]

Okay, next one:
BCFdry lookup needed for O=C(O)C(F)(F)C(F)OC(F)(F)C(F)(F)C(F)(F)OC(F)(F)F (stereo not shown) [ADONA, 4,8-Dioxa-3H-perfluorononanoate] , thanks. 0.56

Hey, just so you know, these numbers are from paper PMC7228129.
